target: HCV polymerase (NS5B570n-Con1) (Hepatitis C virus genotype 1b, UniProt Q9WMX2); construct: a 21 amino acid C-terminal deletion of full-length HCV polymerase; made in house; host or cells: E. coli BL21(DE3) pLysS, plasmid pET17b; test: biochemical; parameters: species or system HCV Con1 strain
The following molecules are shown together with reported IC50 values.
READOUT LABEL: IC50 (nM)

> print(dat)
                                   molecule                                       tgt  unit.annotation  obs.value
1  CC(C)(C)c1cc(-c2ccc[nH]c2=O)cc2c(C(=O)c3cccc(O)c3)coc12  HCV polymerase (NS5B570n-Con1) (Hepatitis C virus genotype 1b, UniProt Q9WMX2)               nM         38
2  CC(C)(C)c1cc(-c2ccc[nH]c2=O)cc2c(C(=O)N3CCNCC3)coc12  HCV polymerase (NS5B570n-Con1) (Hepatitis C virus genotype 1b, UniProt Q9WMX2)               nM       1940
3  CC(C)(C)c1cc(-c2ccc[nH]c2=O)cc2c(C(=O)N3CCC(O)CC3)coc12  HCV polymerase (NS5B570n-Con1) (Hepatitis C virus genotype 1b, UniProt Q9WMX2)               nM         63
4  CC(C)(C)c1cc(-c2ccc[nH]c2=O)cc2c(-c3cccc(C(N)=O)c3)coc12  HCV polymerase (NS5B570n-Con1) (Hepatitis C virus genotype 1b, UniProt Q9WMX2)               nM          9
